The values you see were collected from ChEMBL document CHEMBL3856280.

Recorded EC50 at 48 h values for a group of compounds are listed next.
- test summary: Cytotoxicity against HEK293 cells assessed as reduction in cell viability after 48 hrs by alamar blue assay
- Format: toxicity, cell-based
- condition label: human
Write it as a number; the unit µM goes unstated.

# count of solved cases: 8
- smiles string: "O=S(=O)(Nc1ccc(-c2nc3cc(NS(=O)(=O)c4cccc5nsnc45)ccc3o2)cc1)c1cccc2nsnc12"
  reported measurement: 52
- smiles string: "O=S(=O)(Nc1ccc(-c2nc3cc(NS(=O)(=O)c4ccccc4F)ccc3o2)cc1)c1ccccc1F"
  reported measurement: 31
- smiles string: "O=S(=O)(Nc1ccc(-c2nc3cc(NS(=O)(=O)c4cccc5nonc45)ccc3o2)cc1)c1cccc2nonc12"
  reported measurement: 45
- smiles string: "O=S(=O)(Nc1ccc(-c2nc3cc(NS(=O)(=O)c4ccccc4O)ccc3o2)cc1)c1ccccc1O"
  reported measurement: 18
- smiles string: "O=S(=O)(Nc1ccc(-c2nc3cc(NS(=O)(=O)c4cccc(Br)c4)ccc3o2)cc1)c1cccc(Br)c1"
  reported measurement: 25
- smiles string: "O=S(=O)(Nc1ccc(-c2nc3cc(NS(=O)(=O)c4ccc5ncsc5c4)ccc3o2)cc1)c1ccc2ncsc2c1"
  reported measurement: 95
- smiles string: "Cc1ccccc1S(=O)(=O)Nc1ccc(-c2nc3cc(NS(=O)(=O)c4ccccc4C)ccc3o2)cc1"
  reported measurement: 25
- smiles string: "O=S(=O)(Nc1ccc(-c2nc3cc(NS(=O)(=O)c4ccccc4)ccc3o2)cc1)c1ccccc1"
  reported measurement: 15

Query O=S(=O)(Nc1ccc(-c2nc3cc(NS(=O)(=O)c4ccc(Br)cc4)ccc3o2)cc1)c1ccc(Br)cc1 yields EC50 at 48 h of 22

Entry under test: N#Cc1ccccc1S(=O)(=O)Nc1ccc(-c2nc3cc(NS(=O)(=O)c4ccccc4C#N)ccc3o2)cc1 . Its EC50 at 48 h was 74
